# method_notes: qHTS assay for identifying genotoxic compounds that show differential cytotoxicity against isogenic chicken DT40 cell lines with known DNA damage response pathways - Rad54/Ku70 mutant cell line (AID 743015); also: nearly all actives have a fitted effect of over 60% in size
# measurement_parameters: DT40 Rad54/Ku70 mutant viability, CellTiter-Glo, 40 h; series mostly up to 66.8 µM
Inconclusive results are not listed. Activity calls are given as the source filed them. Calls follow the shape of the dose curve; as a rule, active = well fitted cell-killing curve with a large enough effect in the repeat runs; inconclusive = weak or mixed curves; inactive = no such curve, though single readings can be large or run the other way.
Outcomes: yes (1) for active, no (0) for inactive

>>> class_label("CC(=O)/C=C/c1ccco1")
"no (0)"
>>> class_label("CCC(C)N (configuration not stated)")
"no (0)"
>>> class_label("Cc1c(C(C)C)c(=O)n(-c2ccccc2)n1C")
"no (0)"
>>> class_label("CC(C)CCCCCCOC(=O)C1CCCCC1C(=O)OCCCCCCC(C)C (configuration not stated)")
"no (0)"
>>> class_label("CCOC(=O)CC(CC(=O)OCC)(OC(C)=O)C(=O)OCC")
"no (0)"
>>> class_label("Nc1c(NC/C=C\\COc2cc(CN3CCCCC3)ccn2)c(=O)c1=O")
"no (0)"
>>> class_label("O=C(Nc1cccc(C2=NCCN2)c1)Nc1cccc(C2=NCCN2)c1")
"yes (1)"
>>> class_label("FC(F)(F)c1ccc(Cl)cc1Cl")
"no (0)"
>>> class_label("OC[C@@H](O)[C@H](O)[C@@H](O)[C@@H](O)CO")
"no (0)"
>>> class_label("NS(=O)(=O)c1ccccc1OC(F)(F)F")
"no (0)"
>>> class_label("CCCCCCCC/C=C\\CCCCCCCC(=O)OC[C@@H](O)[C@H]1OC[C@H](O)[C@H]1O")
"no (0)"
>>> class_label("C[Si]1(C)N[Si](C)(C)N[Si](C)(C)N1")
"no (0)"
